- SYSTEM: T1, PLCγ1-SH3 domain (aa 790-851) fused to F1 fragment of Renilla luciferase, P19174
- T1 chain: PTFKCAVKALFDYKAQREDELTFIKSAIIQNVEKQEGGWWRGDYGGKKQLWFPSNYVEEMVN
pIC50: −log10 of the molar value.
MEASURE: pIC50

BINDER	REPORTED
TCRKHRK (modifications not checked) [TAT-minCID (cell-penetrating domain TAT fused to minCID, TCRKHRK)]	4.94
KRKEVQKTCRKHRKENQGSHESPTLNPETVAINLSD (modifications not checked)	4.97
